Data provenance is ChEMBL document CHEMBL5131445.

assay: Kinetic aqueous solubility of the compound at pH 6.8 by shake flask assay; type: physicochemical; conditions: read-out: Kinetic_solubility

- chemicalString: "C=CC(=O)N(C)CCOc1c(N)ncnc1-c1ccc(CN2CCN(CC(C)C)CC2=O)c(C)c1"
  unitLabel: "µg/mL"
  solubility kinetic: 49

====

# Kd per entry
Biological target: Tyrosine-protein kinase Tec (Homo sapiens, UniProt P42680)
Sequence (P42680 whole entry): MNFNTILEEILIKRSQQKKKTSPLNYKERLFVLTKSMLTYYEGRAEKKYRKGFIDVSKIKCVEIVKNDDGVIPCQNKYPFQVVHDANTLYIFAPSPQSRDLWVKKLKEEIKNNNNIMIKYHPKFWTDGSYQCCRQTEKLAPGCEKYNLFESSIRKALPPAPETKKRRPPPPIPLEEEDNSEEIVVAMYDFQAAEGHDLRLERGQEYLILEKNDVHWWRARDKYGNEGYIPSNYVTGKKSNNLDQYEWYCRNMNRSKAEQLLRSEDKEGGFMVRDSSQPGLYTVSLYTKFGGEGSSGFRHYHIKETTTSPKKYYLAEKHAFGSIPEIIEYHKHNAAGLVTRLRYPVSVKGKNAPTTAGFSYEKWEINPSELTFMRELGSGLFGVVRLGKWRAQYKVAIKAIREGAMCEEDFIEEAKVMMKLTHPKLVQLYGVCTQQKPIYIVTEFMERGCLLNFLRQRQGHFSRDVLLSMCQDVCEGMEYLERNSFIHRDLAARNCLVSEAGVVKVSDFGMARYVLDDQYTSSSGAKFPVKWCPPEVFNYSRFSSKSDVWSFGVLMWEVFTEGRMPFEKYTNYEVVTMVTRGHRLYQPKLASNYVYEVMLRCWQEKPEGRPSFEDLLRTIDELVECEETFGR
reportedEndpoint: Kd (nM)

- chemicalString: "C=CC(=O)N(C)CCOc1c(N)ncnc1-c1ccc(CN2CCN(CC(C)C)CC2=O)c(C)c1"
  reportedEndpoint: "Kd"
  assayValue: 240
- chemicalString: "C=CC(=O)N1CCC([C@@H]2CCNc3c(C(N)=O)c(-c4ccc(Oc5ccccc5)cc4)nn32)CC1"
  reportedEndpoint: "Kd"
  assayValue: 18

====

Target protein (sequence): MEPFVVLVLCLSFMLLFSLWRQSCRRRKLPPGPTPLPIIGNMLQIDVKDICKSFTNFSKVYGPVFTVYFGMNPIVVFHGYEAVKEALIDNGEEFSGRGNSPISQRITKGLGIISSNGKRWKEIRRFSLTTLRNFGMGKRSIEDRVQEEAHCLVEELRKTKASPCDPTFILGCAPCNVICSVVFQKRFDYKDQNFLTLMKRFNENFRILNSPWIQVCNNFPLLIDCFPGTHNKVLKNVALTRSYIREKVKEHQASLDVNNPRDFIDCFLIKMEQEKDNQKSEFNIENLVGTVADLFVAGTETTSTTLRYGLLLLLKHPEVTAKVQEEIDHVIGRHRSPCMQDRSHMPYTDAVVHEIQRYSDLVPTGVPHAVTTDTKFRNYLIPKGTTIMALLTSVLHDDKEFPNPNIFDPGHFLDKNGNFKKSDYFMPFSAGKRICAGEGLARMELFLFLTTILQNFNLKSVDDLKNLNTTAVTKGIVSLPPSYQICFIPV
reportedEndpoint: IC50

- chemicalString: "C=CC(=O)N(C)CCOc1c(N)ncnc1-c1ccc(CN2CCN(CC(C)C)CC2=O)c(C)c1"
  assayValue: "> 10 µM"

====

For reference, pKd measured on Receptor tyrosine-protein kinase erbB-4 (Homo sapiens, UniProt Q15303):
pKd: −log10 of the molar value.

- chemicalString: "C[C@@H]1CN(C2COC2)CCN1c1ccc(Nc2cc(-c3ccnc(N4CCn5c(cc6c5CC(C)(C)C6)C4=O)c3CO)cn(C)c2=O)nc1"
  pKd: 4.52
- chemicalString: "C=CC(=O)N(C)CCOc1c(N)ncnc1-c1ccc(CN2CCN(CC(C)C)CC2=O)c(C)c1"
  pKd: 6.05

====

assay: Solubility of the compound at pH 7; assay type: physicochemical; details: buffer
# solubility per entry

- chemicalString: "C=CC(=O)N(C)CCOc1cnccc1-c1ccc(CN2CCN(CC(C)(C)C)CC2=O)c(C)c1"
  solubility [µg/mL]: 55
- chemicalString: "C=CC(=O)N(C)CCOc1cncnc1-c1ccc(CN2CCN(CC(C)(C)C)CC2=O)c(C)c1"
  solubility [µg/mL]: 13
- chemicalString: "Cc1cc(-c2ccnc(Nc3cnn(C)c3)n2)ccc1CN1CCN(CC(C)(C)C)CC1=O"
  solubility [µg/mL]: 11

====

biological target: Tyrosine-protein kinase BTK (Homo sapiens); assay: Inhibition of BTK in human Ramos cells assessed as target occupancy; assay type: cell-based

- chemicalString: "C=CC(=O)N(C)CCOc1c(N)ncnc1-c1ccc(CN2CCN(CC(C)C)CC2=O)c(C)c1"
  IC50 / nM: 3.1

====

experiment: Metabolic stability in rat liver microsomes assessed as intrinsic clearance; type: ADME, Microsome; conditions: read-out: CLH
reportedEndpoint: CLint scaled (L/h/kg)

- chemicalString: "C=CC(=O)N(C)CCOc1c(N)ncnc1-c1ccc(CN2CCN(CC(C)C)CC2=O)c(C)c1"
  reportedEndpoint: "CLint scaled"
  unitLabel: "L/h/kg"
  assayValue: 9.24
- chemicalString: "C=CC(=O)N(C)CCOc1cncnc1-c1ccc(CN2CCN(CC(C)(C)C)CC2=O)c(F)c1"
  reportedEndpoint: "CLint scaled"
  unitLabel: "L/h/kg"
  assayValue: 221
- chemicalString: "C=CC(=O)N(C)CCOc1cnccc1-c1ccc(CN2CCN(CC(C)(C)C)CC2=O)c(C)c1"
  reportedEndpoint: "CLint scaled"
  unitLabel: "L/h/kg"
  assayValue: 221

====

molecular target: Tyrosine-protein kinase BTK (Homo sapiens, UniProt Q06187); assay: Inhibition of BTK (unknown origin)
Sequence (Q06187 whole entry): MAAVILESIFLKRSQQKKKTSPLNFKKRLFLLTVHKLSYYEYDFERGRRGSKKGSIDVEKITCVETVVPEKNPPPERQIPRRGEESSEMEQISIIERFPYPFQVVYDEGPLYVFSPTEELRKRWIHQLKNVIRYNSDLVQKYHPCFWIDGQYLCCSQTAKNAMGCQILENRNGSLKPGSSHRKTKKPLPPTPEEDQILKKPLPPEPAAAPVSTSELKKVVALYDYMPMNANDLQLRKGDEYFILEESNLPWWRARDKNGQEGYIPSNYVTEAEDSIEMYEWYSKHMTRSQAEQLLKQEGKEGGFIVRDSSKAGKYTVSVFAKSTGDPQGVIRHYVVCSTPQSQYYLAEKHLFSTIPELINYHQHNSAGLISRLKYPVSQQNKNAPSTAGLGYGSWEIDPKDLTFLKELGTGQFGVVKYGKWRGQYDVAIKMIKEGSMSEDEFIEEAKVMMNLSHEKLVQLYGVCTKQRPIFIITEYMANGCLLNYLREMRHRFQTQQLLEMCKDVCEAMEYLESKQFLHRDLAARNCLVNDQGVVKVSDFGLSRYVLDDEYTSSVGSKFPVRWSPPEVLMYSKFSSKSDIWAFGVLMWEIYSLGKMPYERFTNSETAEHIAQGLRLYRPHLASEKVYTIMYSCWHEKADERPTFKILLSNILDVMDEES
pIC50: −log10 of the molar value.
Kind request: treat 8 as inclusive, so pIC50 at 8 or higher is fulfilled, anything lower is not fulfilled.

- molecule: "CCN1CCN(Cc2ccc(-c3ccnc(Nc4cnn(C)c4)n3)cc2C)C(=O)C1"
  categoryLabel: "not fulfilled"
- molecule: "CC(C)(C)CN1CCN(Cc2ccc(-c3ccnc(Nc4cnn(CCO)c4)n3)cc2C(F)(F)F)C(=O)C1"
  categoryLabel: "fulfilled"
- molecule: "C=CC(=O)N(C)CCOc1c(N)ncnc1-c1ccc(CN2CCN(CC(C)C)CC2=O)c(C)c1"
  categoryLabel: "fulfilled"
- molecule: "C=CC(=O)N(C)CCOc1cncnc1-c1ccc(CN2CCN(CC3(C)CC3)CC2=O)c(C)c1"
  categoryLabel: "fulfilled"
- molecule: "C=CC(=O)N(C)CCOc1cncnc1-c1ccc(CN2CCN(CC(C)(C)C)CC2=O)c(F)c1"
  categoryLabel: "fulfilled"
- molecule: "C=CC(=O)N(C)CCOc1cncnc1-c1ccc(CN2CCN(CC(C)C)CC2=O)c(C)c1"
  categoryLabel: "fulfilled"
- molecule: "Cc1cc(-c2ccnc(Nc3cnn(C)c3)n2)ccc1CN1CCN(CC(F)(F)F)CC1=O"
  categoryLabel: "not fulfilled"
- molecule: "Cc1cc(-c2ccnc(Nc3cnn(C)c3)n2)ccc1CN1CCN(CC2CN(O)C2)CC1=O"
  categoryLabel: "not fulfilled"
- molecule: "Cc1cc(-c2ccnc(Nc3cnn(CCO)c3)n2)ccc1CN1CCN(CC(C)C)CC1=O"
  categoryLabel: "fulfilled"
- molecule: "C=CC(=O)N(C)CCOc1cncnc1-c1ccc(CN2CCN(C3CCOC3)CC2=O)c(F)c1 (stereo not given)"
  categoryLabel: "not fulfilled"
- molecule: "Cc1cc(-c2ccnc(Nc3cnn(C)c3)n2)ccc1CN1CCN(CC2CCC2)CC1=O"
  categoryLabel: "fulfilled"
- molecule: "Cc1cc(-c2ccnc(Nc3cnn(C)c3)n2)ccc1CN1CCN(CC2CC(F)(F)C2)CC1=O"
  categoryLabel: "not fulfilled"
- molecule: "C=CC(=O)N(C)CCOc1cnccc1-c1ccc(CN2CCN(CC(C)C)CC2=O)c(C)c1"
  categoryLabel: "fulfilled"
- molecule: "C=CC(=O)N(C)CCOc1cnccc1-c1ccc(CN2CCN(CCC)CC2=O)c(C)c1"
  categoryLabel: "fulfilled"
- molecule: "CC(=O)N(C)CCOc1cncnc1-c1ccc(CN2CCN(CC(C)(C)C)CC2=O)c(C)c1"
  categoryLabel: "not fulfilled"
- molecule: "C=CC(=O)N(C)CCOc1cncnc1-c1ccc(CN2CCN(CC3CCC3)CC2=O)c(C)c1"
  categoryLabel: "fulfilled"
- molecule: "Cc1cc(-c2ccnc(Nc3cnn(C)c3)n2)ccc1CN1CCN(CC2CCOC2)CC1=O (stereo not given)"
  categoryLabel: "not fulfilled"
- molecule: "C=CC(=O)N(C)CCOc1cnccc1-c1ccc(CN2CCN(C)CC2=O)c(C)c1"
  categoryLabel: "not fulfilled"
- molecule: "Cc1cc(-c2ccnc(Nc3cnn(C)c3)n2)ccc1CN1CCN(CC2CN(C)C2)CC1=O"
  categoryLabel: "not fulfilled"
- molecule: "C=CC(=O)N(C)CCOc1cnccc1-c1ccc(CN2CCN(CC(C)(C)C)CC2=O)c(C)c1"
  categoryLabel: "fulfilled"
- molecule: "Cc1cc(-c2ccnc(Nc3cnn(C)c3)n2)ccc1CN1CCN(CC2CNC2)CC1=O"
  categoryLabel: "not fulfilled"
- molecule: "C=CC(=O)N(C)CCOc1cnccc1-c1ccc(CN2CCN(C(C)C)CC2=O)c(C)c1"
  categoryLabel: "fulfilled"
- molecule: "Cc1cc(-c2ccnc(Nc3cnn(CCO)c3)n2)ccc1CN1CCN(CC(C)(C)C)CC1=O"
  categoryLabel: "fulfilled"
- molecule: "C=CC(=O)N(C)CCOc1cnccc1-c1ccc(CN2CCN(CC3CCC3)CC2=O)c(C)c1"
  categoryLabel: "fulfilled"
- molecule: "C=CC(=O)N(C)CCOc1cncnc1-c1ccc(CN2CCN(CC(C)(C)C)CC2=O)c(C)c1"
  categoryLabel: "fulfilled"
